Value source: patent US20030068675

Biological target: ZFP SBS#916 (synthetic)
Sequence (chain, as listed by the source): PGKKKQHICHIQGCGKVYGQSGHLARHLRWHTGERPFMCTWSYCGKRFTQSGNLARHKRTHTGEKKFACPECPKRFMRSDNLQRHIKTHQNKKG
Assay: EMSA
Conditions: tags: MBP fusion
metric: Kd (nM)
Answer format: numeric, nM implied, no suffix.

Request: Respond only with Kd recorded for GAGGAAGGA (dsDNA) DNA 1: GAGGAAGGA DNA 2: TCCTTCCTC
Response: 1.3
